Listing of recorded protein stability index by entry.
B1: ZNF649 (parent)
chain: EHERAHRGEKPHGCSLCGKAFYKR

Variants of: B1
Assay: protein stability index of a GFP-peptide fusion (GPS, HEK-293T) (PSI 1-6); higher = more stable;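 note: lentivirally expressed fusions sorted by FACS into six bins by GFP to DsRed ratio, PSI derived from sequencing read proportions per bin multiplied by bin number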
Settings: c terminus: a fixed tail appended
readout_type: protein stability index

INSERT INTO measurements (mutation_string, readout_type, quantitative_readout) VALUES
  ('G13I', 'protein stability index', 3.07),
  ('R4Y', 'protein stability index', 1.5),
  ('G13V', 'protein stability index', 2.03),
  ('E1K', 'protein stability index', 3.37),
  ('E1Y', 'protein stability index', 2.38),
  ('L16P', 'protein stability index', 3.48),
  ('G8D', 'protein stability index', 1.93),
  ('G13S', 'protein stability index', 1.95),
  ('E9A', 'protein stability index', 2.28),
  ('K19P', 'protein stability index', 1.42),
  ('L16G', 'protein stability index', 3.96),
  ('R7Q', 'protein stability index', 2.02),
  ('S15E', 'protein stability index', 2.21),
  ('C17D', 'protein stability index', 4.19),
  ('L16S', 'protein stability index', 1.97),
  ('R24T', 'protein stability index', 4.1),
  ('H6E', 'protein stability index', 1.06),
  ('C14A', 'protein stability index', 4.66),
  ('C14I', 'protein stability index', 4.24),
  ('R7G', 'protein stability index', 1.61),
  ('E9L', 'protein stability index', 2.16),
  ('K19E', 'protein stability index', 1.73);
